Assay method text: Half life at pH 7.4
Type: ADME
Particulars: buffer
Quantity kind: half-life (h)

[
  {
    "Compound": "COc1ccnc(C[S+]([O-])c2nc3cc(OC(F)F)ccc3[nH]2)c1OC (stereo unspecified) [PANTOPRAZOLE]",
    "Quantity kind": "half-life",
    "Obs value": 130
  },
  {
    "Compound": "COc1cnc(C[S+]([O-])c2nc3cc(OC(F)(F)C(F)F)ccc3[nH]2)cc1OC (stereo unspecified)",
    "Quantity kind": "half-life",
    "Obs value": 140
  },
  {
    "Compound": "COc1ccnc(C[S+]([O-])c2nc3cc(OC(F)(F)C(F)F)ccc3[nH]2)c1OC (stereo unspecified)",
    "Quantity kind": "half-life",
    "Obs value": 160
  },
  {
    "Compound": "COc1ccnc(C[S+]([O-])c2nc3cc(OC(F)F)ccc3[nH]2)c1 (stereo unspecified)",
    "Quantity kind": "half-life",
    "Obs value": 51
  },
  {
    "Compound": "Cc1c(OCC(F)(F)F)ccnc1C[S+]([O-])c1nc2ccccc2[nH]1 (stereo unspecified) [LANSOPRAZOLE]",
    "Quantity kind": "half-life",
    "Obs value": 40
  },
  {
    "Compound": "COc1ccc2[nH]c([S+]([O-])Cc3ncc(C)c(OC)c3C)nc2c1 (stereo unspecified) [OMEPRAZOLE]",
    "Quantity kind": "half-life",
    "Obs value": 80
  }
]

(1) COc1cnc(C[S+]([O-])c2nc3cc(OCC(F)(F)F)ccc3[nH]2)c(C)c1OC (stereo unspecified)
(2) COc1cnc(C[S+]([O-])c2nc3cc(OC(F)F)ccc3[nH]2)c(C)c1OC (stereo unspecified)
(3) COc1cc2[nH]c([S+]([O-])Cc3nccc(OC)c3C)nc2cc1OC(F)F (stereo unspecified)
Arrange the 3 entries by half-life so the values rise. Field: ranking. Enter the labels in the order requested.
3, 2, 1
(3: 11 h, 2: 60 h, 1: 130 h)

----------
Tgt: Potassium-transporting ATPase (Oryctolagus cuniculus)
Assay method text: In vitro evaluation for the inhibition of H+/K+ ATPase at pH < 3 in the gastric glands of isolated rabbit stomach.
Quantity kind: IC50 (µM)

(I) COc1cnc(C[S+]([O-])c2nc3cc(OC(F)(F)C(F)F)ccc3[nH]2)cc1OC (centres undefined)
(II) COc1cc2[nH]c([S+]([O-])Cc3nccc(OC)c3OC)nc2cc1OC(F)F (centres undefined)
(III) COc1cnc(C[S+]([O-])c2nc3cc(OCC(F)(F)F)ccc3[nH]2)c(C)c1OC (centres undefined)
(IV) COc1ccnc(C[S+]([O-])c2nc3cc(OCC(F)(F)F)ccc3[nH]2)c1OC (centres undefined)
Give the order of the entries above, sorted from least to greatest IC50. Field: ranking. Enter the labels in the order requested.
IV, III, II, I
(IV: 1 µM, III: 2.51 µM, II: 3.98 µM, I: 20 µM)
